FYI, the data here is from ChEMBL document CHEMBL5058577.

test system: Fibroblast; assay: Multiplex assay against human fibroblast; assay type: toxicity, cell-based; conditions: 12 h, 10 µM, compound concentration 10 uM, replicate 1
Reported values of Population Tubulin-Different-Phenotype (%) for individual entries

Query: Dear colleague, please send me the reported Population Tubulin-Different-Phenotype (%) for COCCCN1CCC(NC(=O)c2cc(Cl)c(N)c3c2OCC3)CC1 [PRUCALOPRIDE] when you can.
Result: 31%

Query: Dear colleague, please send me the reported Population Tubulin-Different-Phenotype (%) for Cc1nn(C)c2nc(NNC(=O)Nc3cc(Cl)nc(Cl)c3)cc(C(C)C)c12 when you can.
Result: 89%

Query: Dear colleague, please send me the reported Population Tubulin-Different-Phenotype (%) for CN1CCN2c3ccccc3Cc3ccccc3C2C1.Cl (stereo not given) [MIANSERIN HYDROCHLORIDE] when you can.
Result: 14%

Query: Dear colleague, please send me the reported Population Tubulin-Different-Phenotype (%) for OCCCNc1cc(-c2ccnc(Nc3cccc(Cl)c3)n2)ccn1 when you can.
Result: 88%

Query: Dear colleague, please send me the reported Population Tubulin-Different-Phenotype (%) for Nc1nc(CC(=O)Nc2ccc(CCNC[C@H](O)c3ccccc3)cc2)cs1 when you can.
Result: 19%

----------
Reported values of Population Apoptotic (%) for individual entries
tested on: Fibroblast; assay: Multiplex assay against human fibroblast; format: toxicity, cell-based; conditions: 24 h, 1 µM, compound concentration 1 uM, replicate 2
Report the value in % with no unit label.

Example entries and their recorded answers appear below.
COc1cc2nc(N3CCN(C(=O)c4ccco4)CC3)nc(N)c2cc1OC.Cl [PRAZOSIN HYDROCHLORIDE]    45
Cc1nn(C)c2nc(NNC(=O)Nc3cc(Cl)nc(Cl)c3)cc(C(C)C)c12    62

Query: Dear colleague, please send me the reported Population Apoptotic (%) for CN1CCN(c2ccc(Nc3c4ccccc4nc4ccccc34)cc2)CC1.Cl.Cl.O when you can.
Result: 60

Query: Dear colleague, please send me the reported Population Apoptotic (%) for CC(F)(F)CN1CCOc2c(nn(-c3ccccc3Cl)c2-c2ccc(Cl)cc2)C1=O when you can.
Result: 64

Query: Dear colleague, please send me the reported Population Apoptotic (%) for CN1CCC(C(=O)c2cccc(NC(=O)c3c(F)cc(F)cc3F)n2)CC1 when you can.
Result: 40

Query: Dear colleague, please send me the reported Population Apoptotic (%) for CN1CCN2c3ccccc3Cc3ccccc3C2C1.Cl (centres undefined) [MIANSERIN HYDROCHLORIDE] when you can.
Result: 36

Query: Dear colleague, please send me the reported Population Apoptotic (%) for COc1ccc2c(c1OCc1ccccc1)C[C@@H](C(=O)O)N(C(=O)C(c1ccccc1)c1ccccc1)C2 when you can.
Result: 38

Query: Dear colleague, please send me the reported Population Apoptotic (%) for Nc1nc(CC(=O)Nc2ccc(CCNC[C@H](O)c3ccccc3)cc2)cs1 when you can.
Result: 58

Query: Dear colleague, please send me the reported Population Apoptotic (%) for O=c1ccc2ccc(OCCCCN3CCN(c4cccc5sccc45)CC3)cc2[nH]1 when you can.
Result: 33

----------
test system: U2OS; assay: Multiplex assay against U2OS; assay type: toxicity, cell-based; settings: human, 12 h, 10 µM, compound concentration 10 uM, replicate 2
ENDPOINT: Population Membrane Permeable-Phenotype (%)
Number plus unit, in that order.

Example entries and their recorded answers appear below.
COc1cc(C(=O)N2CC[C@@H](O)[C@@H](N)C2)cc2nc(-c3cc4ccccc4n3CC3CC3)n(C)c12.Cl    79%
CCc1nn2c(C)cc(C)nc2c1Cc1ccc(-c2nnc(C3CCNCC3)o2)cc1    30%
Cc1ccc(OCC(O)C(C)NC(C)C)c2c1CCC2.Cl (stereo not drawn)    9%
N[C@](CC1c2ccccc2Oc2ccccc21)(C(=O)O)[C@H]1C[C@@H]1C(=O)O    7%
CCC(=O)OCC(=O)[C@@]1(OC(=O)CC)[C@@H](C)C[C@H]2[C@@H]3CCC4=CC(=O)C=C[C@]4(C)[C@@]3(Cl)[C@@H](O)C[C@@]21C [BECLOMETHASONE DIPROPIONATE]    48%

Query: Dear colleague, please send me the reported Population Membrane Permeable-Phenotype (%) for Cn1cc(C(=O)OCC2CCN(CCNS(C)(=O)=O)CC2)c2ccccc21 when you can.
Result: 17%

Query: Dear colleague, please send me the reported Population Membrane Permeable-Phenotype (%) for COc1ccc2c(c1OCc1ccccc1)C[C@@H](C(=O)O)N(C(=O)C(c1ccccc1)c1ccccc1)C2 [OLODANRIGAN] when you can.
Result: 2%

Query: Dear colleague, please send me the reported Population Membrane Permeable-Phenotype (%) for CCn1c(-c2nc3cc(C(=O)N4CCCC(N)C4)ccc3n2C)cc2ccccc21.Cl (stereo not drawn) when you can.
Result: 25%
